Molecular target: Sa-ClpP (Staphylococcus aureus)
Construct: made in house; host or cells: E. coli BL21(DE3)
Sequence (Q2G036 whole entry): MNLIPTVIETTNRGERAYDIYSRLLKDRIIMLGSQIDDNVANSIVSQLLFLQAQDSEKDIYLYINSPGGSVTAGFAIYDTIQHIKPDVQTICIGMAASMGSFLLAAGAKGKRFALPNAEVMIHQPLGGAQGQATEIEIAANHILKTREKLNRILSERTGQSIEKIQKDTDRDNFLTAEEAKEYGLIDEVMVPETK
Experiment: Sa-ClpP casein-BODIPY ClpP activation assay, method variant not marked in Table 5
Type: biochemical, S. aureus
Settings: values without ** or † mark; assay variant not stated; read-out: ClpP Activation EC50
*1 amine or outer side, *2 acyl side, *3 side chain or, on linkers, in order; H or OH if unused. Where a SMILES comes first, the peptide text is derived from it. Bridges are numbered along the chain shown (N, C = ends). [ ]: non-standard residue; d: D form. The star is where a group is joined. ξ: configuration not given here. Phe(3,5-F2) = N[C@@H](Cc1cc(F)cc(F)c1)C(=O)O; NH(1-Me-indolin-5-yl) = CN1CCc2cc(N*)ccc21; Morpholine(3S-CO) = O=C(O)[C@@H]1COCCN1; Pro(4R-Me) = C[C@H]1CN[C@H](C(=O)O)C1; Hyp = O=C(O)[C@@H]1C[C@@H](O)CN1; Heptenoyl(2E) = CCCC/C=C/C(=O)*; NH(4-Me-phenyl) = Cc1ccc(N*)cc1; ξNMeThr = CNC(C(=O)O)[C@@H](C)O; aThr = C[C@H](O)[C@H](N)C(=O)O; Pip = O=C(O)[C@@H]1CCCCN1; X4 = c1cc2c(cc1N*)CCC2; CO = O=C([*:1])[*:2]
measurement type: pEC50
Answers are plain numbers, as −log10 of the molar value.

Example entries and their recorded answers appear below.
| compound | pEC50 |
| --- | --- |
| Cc1ccc(NC(=O)N[C@@H](Cc2cc(F)cc(F)c2)C(=O)N[C@@H]2C(=O)N3CCC[C@H]3C(=O)N3CCOC[C@H]3C(=O)N[C@@H](C)C(=O)N3C[C@H](C)C[C@H]3C(=O)O[C@H]2C)cc1 [Compound 210] ({NH(4-Me-phenyl)-CO}-[Phe(3,5-F2)][aThr]P[Morpholine(3S-CO)]A[Pro(4R-Me)]; ester 2-C) | 6.40 |
| CCCC/C=C/C(=O)N[C@@H](Cc1cc(F)cc(F)c1)C(=O)N[C@@H]1C(=O)N2C[C@H](O)C[C@H]2C(=O)N2CCOC[C@H]2C(=O)N[C@@H](C)C(=O)N2C[C@H](C)C[C@H]2C(=O)O[C@H]1C [Compound 309] ({Heptenoyl(2E)}-[Phe(3,5-F2)][aThr][Hyp][Morpholine(3S-CO)]A[Pro(4R-Me)]; ester 2-C) | 6.32 |
| C[C@@H]1C[C@H]2C(=O)OC[C@H](NC(=O)[C@H](Cc3ccccc3)NC(=O)Nc3ccc4c(c3)OCO4)C(=O)N3CCC[C@H]3C(=O)N3CCCC[C@H]3C(=O)N[C@@H](C)C(=O)N2C1 [Compound 194] | 5.92 |
| C[C@@H]1C[C@H]2C(=O)O[C@@H](C)[C@H](NC(=O)[C@H](Cc3cc(F)cc(F)c3)NC(=O)Nc3ccc4c(c3)CCN4C)C(=O)N3C[C@H](O)C[C@H]3C(=O)N3CCOC[C@H]3C(=O)N[C@@H](C)C(=O)N2C1 [Compound 315] ({NH(1-Me-indolin-5-yl)-CO}-[Phe(3,5-F2)][aThr][Hyp][Morpholine(3S-CO)]A[Pro(4R-Me)]; ester 2-C) | 5.97 |

# map each compound to its pEC50
1. Cc1ccc(NC(=O)N[C@@H](Cc2cc(F)cc(F)c2)C(=O)N[C@H]2COC(=O)[C@@H]3C[C@@H](C)CN3C(=O)[C@H](C)NC(=O)C([C@@H](C)O)N(C)C(=O)[C@@H]3CCCN3C2=O)cc1 (stereo partly drawn) [Compound 322] ({NH(4-Me-phenyl)-CO}-[Phe(3,5-F2)]SP[ξNMeThr]A[Pro(4R-Me)]; ester 2-C)
2. C[C@@H]1C[C@H]2C(=O)O[C@@H](C)[C@H](NC(=O)[C@H](Cc3cc(F)cc(F)c3)NC(=O)Nc3ccc4c(c3)CCC4)C(=O)N3CCC[C@H]3C(=O)N3CCCC[C@H]3C(=O)N[C@@H](C)C(=O)N2C1 [Compound 302] ({X4-CO}-[Phe(3,5-F2)][aThr]P[Pip]A[Pro(4R-Me)]; ester 2-C)
3. Cc1ccc(NC(=O)N[C@@H](Cc2ccccc2)C(=O)N[C@H]2COC(=O)[C@@H]3C[C@@H](C)CN3C(=O)[C@H](C)NC(=O)[C@@H]3CCCCN3C(=O)[C@@H]3CCCN3C2=O)cc1C [Compound 206]

1: 6.25; 2: 6.32; 3: 5.80
